The reported measurements were obtained from patent US20140296178A1.

# System: multiple myeloma tumor cell line RPMI 8226
# Assay Procedure: Promega Cell Titer-Glo antiproliferative assay, single agent and combination
# Type: cell-based, human
# Test Parameters: RPMI-8226, tris(8-quinolinolato)gallium(III) alone; unit from figure X axis
Property Name: IC50

Query for multiple myeloma tumor cell line RPMI 8226: what IC50 does the record show for "[Ga+3].[O-]c1cccc2cccnc12.[O-]c1cccc2cccnc12.[O-]c1cccc2cccnc12" ?
~900 nM
